Listed compounds paired with reported EC50
# Test system: Ramos cells
# assay text: Cytotoxicity in Ramos cells
# Format: cell-based
# details: Homo sapiens; cytotoxicity in Ramos cells; read-out: Ramos Cell EC50

compound	EC50
O=C(/N=C(/NCc1ccccc1C(F)(F)F)Nc1cc(C(F)(F)F)n[nH]1)c1ccc(Cl)cc1	< 10 µM
COC[C@H](C)NC(=NC(=O)c1cccc(S(C)(=O)=O)c1)Nc1cc(-c2ccc(F)cc2)n[nH]1	> 10 µM
CC(C)(C)NC(=NC(=O)c1ccccc1)Nc1cc(C(F)(F)F)n[nH]1	< 10 µM
O=C(/N=C(/NCc1ccc(Cl)c(F)c1)Nc1cc(C(F)(F)F)[nH]n1)c1ccc(Cl)cc1	< 10 µM
CCC(C)(C)N/C(=N/C(=O)c1ccc(C(F)F)cc1)Nc1cc(C(F)(F)F)[nH]n1	< 10 µM
C[C@@H](N/C(=N/C(=O)c1ccc(F)c(F)c1)Nc1cc(C(F)(F)F)[nH]n1)c1ccc(Cl)cc1	< 10 µM
O=C(/N=C(/NCc1ccc(F)c(Cl)c1)Nc1cc(C(F)F)[nH]n1)c1ccc(C(F)(F)F)cc1	> 10 µM
CC(C)NC(=NC(=O)c1cccc(F)c1)Nc1cc(-c2cc(F)cc(F)c2)n[nH]1	< 10 µM
CC(C)(C)N/C(=N/C(=O)c1cccc(C(F)(F)F)c1)Nc1cc(C(F)(F)F)[nH]n1	< 10 µM
CC(C)(C)NC(=NC(=O)c1ccc(Cl)cc1)Nc1cc(-c2cccc(Cl)c2)[nH]n1	< 10 µM
COCC(C)NC(=NC(=O)c1ccc(C(F)(F)F)cc1)Nc1cc(-c2ccc(Cl)cc2)n[nH]1 (stereo not drawn)	< 10 µM
O=C(/N=C(/Nc1cc(F)cc(Cl)c1)Nc1cc(C(F)F)[nH]n1)c1ccc(F)c(F)c1	< 10 µM
CC(C)(C)N/C(=N/C(=O)c1ccc(C(F)(F)F)nc1)Nc1cc(C(F)(F)F)[nH]n1	< 10 µM
CC(C)(C)N/C(=N/C(=O)c1ccc(C(F)(F)F)cc1)Nc1cc(C(F)F)[nH]n1	< 10 µM
O=C(N=C(NCC1CCO1)Nc1cc(-c2ccc(F)cc2)n[nH]1)c1ccc(Cl)c(F)c1 (stereo not drawn)	> 10 µM
CC(C)(C)NC(=NC(=O)c1cccc(F)c1)Nc1cc(-c2ccc(Cl)cc2)n[nH]1	< 10 µM
O=C(N=C(Nc1cc(-c2ccccc2)[nH]n1)NC1CCOCC1)c1ccc(C(F)(F)F)cc1	> 10 µM
CNC(=O)c1cc(NC(=NC(=O)c2ccc(C(F)(F)F)cc2)Nc2ccc(F)cc2Cl)[nH]n1	> 10 µM
COCC(C)NC(=NC(=O)c1ccnc(N2CCCC2)c1)Nc1cc(-c2ccc(F)cc2)[nH]n1 (stereo not drawn)	< 10 µM
O=C(/N=C(\Nc1cc(C(F)(F)F)n[nH]1)NC1CCOCC1)c1ccc(C(F)(F)F)cc1	< 10 µM
O=C(/N=C(/NCc1ccc(Cl)cc1F)Nc1cc(C(F)(F)F)[nH]n1)c1ccc(F)c(F)c1	< 10 µM
